- tested_target: Beta-lactamase class C (Enterobacter cloacae)
- Sequence (Q59401 whole entry): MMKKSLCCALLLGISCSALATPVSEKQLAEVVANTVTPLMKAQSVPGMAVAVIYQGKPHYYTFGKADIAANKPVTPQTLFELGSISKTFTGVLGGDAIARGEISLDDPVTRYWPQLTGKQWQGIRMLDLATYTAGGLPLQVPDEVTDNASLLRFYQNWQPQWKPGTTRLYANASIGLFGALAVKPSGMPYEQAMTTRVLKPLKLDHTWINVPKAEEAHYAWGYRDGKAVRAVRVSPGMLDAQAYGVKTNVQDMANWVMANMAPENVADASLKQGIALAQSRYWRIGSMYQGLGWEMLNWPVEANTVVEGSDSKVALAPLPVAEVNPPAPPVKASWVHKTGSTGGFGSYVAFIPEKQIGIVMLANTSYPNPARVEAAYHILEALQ
- measurement_description: Inhibition of class C beta-lactamase derived from Enterobacter cloacae P99
Form field: pIC50 (one value per entry).
Please express pIC50 as -log10 of the molar concentration.

Solved cases (5 shown):
>  <compound>
NC(=O)/C=C/C1=C(C(=O)O)N2C(=O)/C(=C/c3cccs3)C2S(=O)(=O)C1 (centres undefined)

>  <pIC50>
6.54

$$$$
>  <compound>
O=C(O)C1=C(/C=C/c2ccccn2)CS(=O)(=O)[C@@H]2/C(=C\c3ccccn3)C(=O)N12

>  <pIC50>
6.74

$$$$
>  <compound>
N#CCC1=C(C(=O)O)N2C(=O)/C(=C/c3ccccn3)C2S(=O)(=O)C1 (centres undefined)

>  <pIC50>
6.05

$$$$
>  <compound>
O=C(O)C1=C(/C=C/c2cccc[n+]2[O-])CS(=O)(=O)[C@@H]2/C(=C\c3ccccn3)C(=O)N12

>  <pIC50>
6.22

$$$$
>  <compound>
NC(=O)/C=C/C1=C(C(=O)O)N2C(=O)/C(=C/c3ccccn3)C2S(=O)(=O)C1 (centres undefined)

>  <pIC50>
7.59

$$$$

QUERY: Which pIC50 value belongs to COC(=O)/C=C/C1=C(C(=O)O)N2C(=O)/C(=C/c3ccccn3)C2S(=O)(=O)C1 (centres undefined) ?
RESULT: 6.70

QUERY: // lookup pIC50 for C=C1C(/C=C/C(=O)OC(C)(C)C)=C(C(=O)O)N2C(=O)/C(=C/c3ccccn3)C2S1(=O)=O (centres undefined)
RESULT: 3.36

QUERY: Which measured pIC50 value corresponds to O=C(COc1ccccc1)OCC1=C(C(=O)O)N2C(=O)/C(=C/c3ccccn3)C2S(=O)(=O)C1 (centres undefined) ?
RESULT: 7.00

QUERY: Bench note: what pIC50 did COCC1=C(C(=O)O)N2C(=O)/C(=C/c3ccccn3)C2S(=O)(=O)C1 (centres undefined) show?
RESULT: 6.15
